Test system: A549
ASSAY: NCI tumour cell line growth inhibition, 48 h
The source made the active and inactive calls. No stated cut-off is given here; in the data, active = GI50 up to about 1.1 µM and inactive = higher.
Known GI50 of a selection of compounds

# COMPOUND, GI50
rows = [
    ("[O-]/[N+](=C\\c1ccccc1)[C@H](COCc1ccccc1)c1ccccc1", "51.6 µM (inactive)"),
    ("CN(C)c1ccc(/C=N\\NC(=O)c2ccccc2Nc2ccccc2C(=O)N/N=C/c2ccc(N(C)C)cc2)cc1", "> 100 µM (inactive)"),
    ("COc1ccc(/C=C(/C(=O)c2ccc(Cl)cc2)N2C=CC=CC2=C(C#N)C#N)cc1OC", "14.4 µM (inactive)"),
    ("C/C=C(\\C)C(O)C(C)C(O)C/C=C(C)/C=C(\\C)C/C(C)=C/C/C=C(\\C)C(O)C(C)c1ccc(CCC)c(=O)o1 (stereo not given)", "3.57 µM (inactive)"),
    ("CCCC(O)[C@@H](O)c1ccc2c(c1O)C(=O)c1c(OC)cccc1C2=O (stereo not given in full)", "44 µM (inactive)"),
    ("Cc1cc(N(CCC#N)S(=O)(=O)c2ccccc2)ccc1C=O", "> 100 µM (inactive)"),
    ("CN/C(=N\\c1ccc(OC)c2ccccc12)SC", "> 10 µM (inactive)"),
    ("CC(C)(C)OC[C@H](O)CC#N", "> 100 µM (inactive)"),
    ("CCCc1c(OC)c(=O)c2c(OC)cc(OC)c3c4c(OC)cc(OC)c5c(=O)c(OC)c(CCC)c(c1c23)c54", "19.4 µM (inactive)"),
    ("CC(CN(C)C)C(O)(c1ccccc1)c1ccccc1 (stereo not given)", "> 100 µM (inactive)"),
]

* * *

Test system: MCF7
ASSAY: NCI tumour cell line growth inhibition, 48 h
Activity calls are given as the source filed them. Rule as the data show it: active = GI50 up to about 1.1 µM and inactive = higher.

# COMPOUND, GI50
measured = [
    ("CCOC(=O)c1ccc(NC(NC(=O)CC)(C(F)(F)F)C(F)(F)F)cc1", "> 100 µM (inactive)"),
    ("COc1ccc(CNc2ccn(C3OC(CO)C(O)C3O)c(=O)n2)cc1 (stereo unspecified)", "72.9 µM (inactive)"),
    ("COC(=O)c1ccc(C)cc1CC1Cc2cc(C)ccc2C1=O (stereo unspecified)", "> 100 µM (inactive)"),
    ("O=S(=O)(O)C1CCC(O)C2NCCCC21 (stereo unspecified)", "> 100 µM (inactive)"),
    ("COC(=O)CC1C(C)(C)C(=O)C2CC3=C4CC(=O)OC(c5ccoc5)C4(C)CCC3C1(C)C2=O (stereo unspecified)", "> 100 µM (inactive)"),
    ("CC(Cl)CC(=O)OCC1CCCN2CCCCC12 (stereo unspecified)", "> 100 µM (inactive)"),
]

* * *

System: DU-145
ASSAY: NCI tumour cell line growth inhibition, 48 h
Activity calls are given as the source filed them. Rule as the data show it: active = GI50 up to about 1.1 µM and inactive = higher.
Outcome codes: Yes = active, No = inactive

# COMPOUND, GROUP
measured = [
    ("Cc1nc(-[n+]2nc(-c3ccncc3)nn2-c2ccccc2)sc1C", "No"),
    ("CCCc1c(OC)c(=O)c2c(OC)cc(OC)c3c4c(OC)cc(OC)c5c(=O)c(OC)c(CCC)c(c1c23)c54", "No"),
    ("COc1ccc2nc3ccc(OC)cc3c(S(=O)(=O)Cc3ccc([N+](=O)[O-])cc3)c2c1", "No"),
    ("CN1CCN(CCCN2c3ccccc3Sc3ccc(C(F)(F)F)cc32)CC1", "No"),
    ("[O-][S+](Nc1ccccc1)c1ccc(-c2ccccc2)cc1 (stereo not drawn)", "No"),
    ("COc1ccc(C2CC(c3ccc4ccccc4c3O)=NN2C(C)=O)cc1OC (stereo not drawn)", "No"),
    ("c1cc2c(cc1NC1=NCCO1)CCCC2", "No"),
    ("C[C@@H]1O[C@@H]2OCC[C@@H]2C2=C1C(=O)c1ccccc1C2=O", "No"),
    ("CC1CN=C(NCc2ccccc2)S1 (stereo not drawn)", "No"),
    ("O=C(NC1CCCCC1)c1cc2ccccc2cc1O", "No"),
    ("CSC(CC(=O)O)C(=O)O (stereo not drawn)", "No"),
    ("Cc1ccc(/N=N/NCCCCN/N=N/c2ccc(C)cc2)cc1", "No"),
    ("COc1ccc2c(c1)c1nn(CCN(C)C)c3ccc4c(=O)n(CCN(C)C)c(=O)n2c4c13", "Yes"),
    ("CN(C)c1ccc(/C=N\\NC(=O)c2ccccc2Nc2ccccc2C(=O)N/N=C/c2ccc(N(C)C)cc2)cc1", "No"),
    ("CC(Cl)CC(=O)OCC1CCCN2CCCCC12 (stereo not drawn)", "No"),
    ("O=C(c1cccs1)N(C(=O)N1CCCCC1)c1ccccc1", "No"),
    ("CC1(C)CC(=O)C2=C(C1)NC(=S)C(C#N)C2c1ccccc1 (stereo not drawn)", "No"),
    ("O=C(O)CC/C(=N\\Nc1nsc2ccccc12)c1ccc(Cl)cc1", "No"),
]

Measured values drawn from ChEMBL document CHEMBL1201862 for this set.
